test system: dopamine-β-hydroxylase; experiment: Determination of noradrenaline and dopamine levels of brain (dopamine-β-hydroxylase inhibiting effect); format: in vivo, male Wistar rats; settings: i.p., 200 mg/kg, 8 hours; ± standard error
PARAMETER_MEASURED: Brain DA (dopamine) level, percentages in relation to the controls
Please give the number followed by its unit.

Example entries begin here.
- MOLECULE_SMILES: "COCCNC1=C(C(=S)SSC(=S)C2=C(NCCOC)CCC2)CCC1"
  REPORTED_VALUE: "120.6±5.8%"
- MOLECULE_SMILES: "S=C(SSC(=S)C1=C(NC2CCCCC2)CCC1)C1=C(NC2CCCCC2)CCC1"
  REPORTED_VALUE: "116.2±3.3%"

Working through the 3 compounds below one at a time, give Brain DA (dopamine) level, percentages in relation to the controls for each.
1. CCCCNC1=C(C(=S)SSC(=S)C2=C(NCCCC)CCC2)CCC1
2. CCNC1=C(C(=S)SSC(=S)C2=C(NCC)CCC2)CCC1
3. C=CCNC1=C(C(=S)SSC(=S)C2=C(NCC=C)CCC2)CCC1

A)
91.0±12.7%
121.7±6.1%
104.7±5.7%

----------
For each of the compounds below, state its Heart NA (noradrenaline) level, percentages in relation to the controls.
test system: dopamine-β-hydroxylase; test: Determination of the noradrenaline content of heart; assay type: in vivo, male Wistar rats; conditions: i.p., 200 mg/kg, 8 hours; ± standard error
Numbers only, in %.

Please review the following examples before continuing.
- MOLECULE_SMILES: "CCNC1=C(C(=S)SSC(=S)C2=C(NCC)CCC2)CCC1"
  REPORTED_VALUE: 81.3
- MOLECULE_SMILES: "C=CCNC1=C(C(=S)SSC(=S)C2=C(NCC=C)CCC2)CCC1"
  REPORTED_VALUE: 91.8
- MOLECULE_SMILES: "COCCNC1=C(C(=S)SSC(=S)C2=C(NCCOC)CCC2)CCC1"
  REPORTED_VALUE: 75.7
- MOLECULE_SMILES: "S=C(SSC(=S)C1=C(NC2CCCCC2)CCC1)C1=C(NC2CCCCC2)CCC1"
  REPORTED_VALUE: 89.5

Entry CCCCNC1=C(C(=S)SSC(=S)C2=C(NCCCC)CCC2)CCC1 ; Heart NA (noradrenaline) level, percentages in relation to the controls = 91.7

----------
tested on: dopamine-β-hydroxylase; assay: Determination of the adrenaline content of adrenal gland; format: in vivo, male Wistar rats; details: i.p., 200 mg/kg, 4 hours; ± standard error
PARAMETER_MEASURED: Adrenal gland AD (adrenaline) level, percentages in relation to the controls (%)
Answers are plain numbers, in %.

Recorded results for 3 molecules are shown here.
- MOLECULE: "S=C(SSC(=S)C1=C(NC2CCCCC2)CCC1)C1=C(NC2CCCCC2)CCC1 [Compound M-5]"
  REPORTED_VALUE: 109.0
- MOLECULE: "COCCNC1=C(C(=S)SSC(=S)C2=C(NCCOC)CCC2)CCC1 [Compound M-4]"
  REPORTED_VALUE: 96.3
- MOLECULE: "CCN(CC)C(=S)SSC(=S)N(CC)CC [DS, bis(diethylthiocarbamoyl)-disulfide, reference compound]"
  REPORTED_VALUE: 52

Give me Adrenal gland AD (adrenaline) level, percentages in relation to the controls for each of these molecules, listed below.
1. CCNC1=C(C(=S)SSC(=S)C2=C(NCC)CCC2)CCC1 [Compound M-6]
2. S=C(Nc1ccccc1)Nc1nccs1 [Compound U-14624, N-phenyl-N'-(2-thiazolyl)-thiourea, reference compound]
3. C=CCNC1=C(C(=S)SSC(=S)C2=C(NCC=C)CCC2)CCC1 [Compound M-7]
4. CCCCNC1=C(C(=S)SSC(=S)C2=C(NCCCC)CCC2)CCC1 [Compound M-2]

A)
97.3
72
93.3
91.7
